- System: COLO 205 colon
- EXPERIMENTAL_DETAILS: NCI tumour cell line growth inhibition, 48 h

[
  {
    "COMPOUND": "O=[N+]([O-])C1Cc2ccccc2OC1c1ccccc1 (stereo not given)",
    "TESTED_SYSTEM": "COLO 205 colon",
    "TGI": "> 100 µM"
  },
  {
    "COMPOUND": "O=c1c(Cl)c(Cl)c(=O)c2sc3cc(Cl)ccc3[nH]c1=2",
    "TESTED_SYSTEM": "COLO 205 colon",
    "TGI": "> 100 µM"
  },
  {
    "COMPOUND": "CCCC(CCC)C(=O)OCC1(CO)C/C(=C\\c2ccc(F)cc2)C(=O)O1 (stereo not given)",
    "TESTED_SYSTEM": "COLO 205 colon",
    "TGI": "8.74 µM"
  },
  {
    "COMPOUND": "COc1nc(N)nc2c1ncn2C1OC(CO)C(O)C1O (stereo not given)",
    "TESTED_SYSTEM": "COLO 205 colon",
    "TGI": "2250 µM"
  },
  {
    "COMPOUND": "CCNC(=O)c1c(O)c2ccccc2[nH]c1=O",
    "TESTED_SYSTEM": "COLO 205 colon",
    "TGI": "> 100 µM"
  },
  {
    "COMPOUND": "O=C(Cc1ccccc1)Nn1c(-c2ccccc2)nc2ccccc2c1=O",
    "TESTED_SYSTEM": "COLO 205 colon",
    "TGI": "> 100 µM"
  },
  {
    "COMPOUND": "O=C(O)CC1NCc2cc3ccccc3nc21 (stereo not given)",
    "TESTED_SYSTEM": "COLO 205 colon",
    "TGI": "> 100 µM"
  },
  {
    "COMPOUND": "O=[N+]([O-])c1ccc(C=NCC2CCCN3CCCCC23)cc1 (stereo not given)",
    "TESTED_SYSTEM": "COLO 205 colon",
    "TGI": "> 100 µM"
  },
  {
    "COMPOUND": "CC1=NN(C(=O)c2ccc([N+](=O)[O-])cc2)C(=O)C1N=Nc1ccccc1C(=O)O (stereo not given)",
    "TESTED_SYSTEM": "COLO 205 colon",
    "TGI": "> 100 µM"
  },
  {
    "COMPOUND": "CCOC(=O)C(Cc1cccn1C(=O)OC(C)(C)C)[N+](=O)[O-] (stereo not given)",
    "TESTED_SYSTEM": "COLO 205 colon",
    "TGI": "41.3 µM"
  },
  {
    "COMPOUND": "CCOC(=N)CC(=O)c1ccccc1",
    "TESTED_SYSTEM": "COLO 205 colon",
    "TGI": "> 100 µM"
  },
  {
    "COMPOUND": "COc1cc2cc(C(=O)N3CC(CCl)c4c3cc(N)c3ccccc43)[nH]c2c(OC)c1OC (stereo not given)",
    "TESTED_SYSTEM": "COLO 205 colon",
    "TGI": "< 0.01 µM"
  },
  {
    "COMPOUND": "CC(=O)OCC1OC(Oc2cc(C)c(O)cc2C/C=C(\\C)CC/C=C(\\C)CC(=O)CC(C)C)C(O)C(OC(C)=O)C1OC(C)=O (stereo not given)",
    "TESTED_SYSTEM": "COLO 205 colon",
    "TGI": "17.3 µM"
  },
  {
    "COMPOUND": "C/C=C/C1OC(O)(C(C)C(O)[C@H](C)C2OC(=O)/C(OC)=C/C(C)=C/[C@@H](C)[C@@H](O)[C@@H](C)C(O)C(C)C/C(C)=C/C=C/C2OC)C[C@@H](OC2CC(O)C(OC(N)=O)C(C)O2)C1C (stereo not given in full)",
    "TESTED_SYSTEM": "COLO 205 colon",
    "TGI": "1.27 µM"
  },
  {
    "COMPOUND": "COc1ccc(OC)c2c1[nH]c(=O)c1c3ncccc3cn21",
    "TESTED_SYSTEM": "COLO 205 colon",
    "TGI": "> 100 µM"
  }
]
